Numbers sourced from ChEMBL document CHEMBL2146470.

measurementDescription: Drug uptake in tumor of nude NCr mouse xenografted with human MDA-MB-231T cells at 10 mg/kg, po measured after 24 hrs by LC-MS analysis
Type: ADME, organism-based, Neoplasm
Design: dose 10 mg/kg, route oral
settings: read-out: Drug uptake
measurementLabel: concentration at 24 h

Input: Please report the recorded concentration at 24 h for O=C(c1ccc(F)c(F)c1Nc1ccc(I)cc1F)N1CC(O)([C@@H]2CCCCN2)C1 [COBIMETINIB] .
Output: 1990 nM

---

measurementDescription: Drug uptake in tumor of nude NCr mouse xenografted with human MDA-MB-231T cells at 100 mg/kg, po measured after 24 hrs by LC-MS analysis
Assay type: ADME, organism-based, Neoplasm
Parameters: dose 100 mg/kg, route oral
settings: read-out: Drug uptake
measurementLabel: concentration at 24 h (µM)
Response body: numeric value in µM, unit text excluded.

Input: Please report the recorded concentration at 24 h for O=C(c1ccc(F)c(F)c1Nc1ccc(I)cc1F)N1CC(O)([C@@H]2CCCCN2)C1 .
Output: 22.9
